The reported numbers originate from patent US20230234969A1.

For reference, Ki measured on Myeloid Cell Leukemia 1 (Mcl-1) (Homo sapiens):
Entry rule: numbers only, all in nM.

Example results:
- compound: "COCCOCCn1c(C(=O)O)c2c3ccc(Cl)c(c31)-c1c(C)c(C)nn1CCCc1cc(n(C)n1)CCc1cc(c3ccc(F)cc3c1)OCCC2 (single isomer, unassigned) [Compound 5]"
  tested_system: "Myeloid Cell Leukemia 1 (Mcl-1) (Homo sapiens)"
  number: 0.027
- compound: "CCn1c(C(=O)O)c2c3ccc(Cl)c(c31)-c1c(C)c(C)nn1CCCc1cc(n(CCN(C)C)n1)CCc1cc(c3ccc(F)cc3c1)OCCC2 (single isomer, unassigned) [Compound 8]"
  tested_system: "Myeloid Cell Leukemia 1 (Mcl-1) (Homo sapiens)"
  number: 8.06
- compound: "Cc1nn2c(c1C)-c1c(Cl)ccc3c(c(C(=O)O)n(C)c13)CCCOc1cc(cc3ccccc13)SCc1cc(nn1C)CCC2 (single isomer, unassigned) [Compound 2]"
  tested_system: "Myeloid Cell Leukemia 1 (Mcl-1) (Homo sapiens)"
  number: 3.21

// next entry
Ask: What value of Ki has been recorded for this entry: CCn1c(C(=O)O)c2c3ccc(Cl)c(c31)-c1c(C)c(C)nn1CCCc1cc(n(C)n1)CCc1cc(c3ccc(F)cc3c1)OCCC2 (single isomer, unassigned) [Compound 4]
Result: 33.7

* * *

For reference, Ki measured on Myeloid Cell Leukemia 1 (Mcl-1) (Homo sapiens, UniProt Q07820):
Entry rule: numbers only, all in nM.

Example results:
- molecule: "CCn1c(C(=O)O)c2c3ccc(Cl)c(c31)-c1c(C)c(C)nn1CCCc1cc(n(C)n1)CCc1cc(c3ccc(F)cc3c1)OCCC2 (single isomer, unassigned) [Compound 3]"
  uom: "nM"
  Ki: 0.043
- molecule: "Cc1nn2c(c1C)-c1c(Cl)ccc3c(c(C(=O)O)n(C)c13)CCCOc1cc(cc3ccccc13)SCc1cc(nn1C)CCC2 (single isomer, unassigned) [Compound 1]"
  uom: "nM"
  Ki: 0.09

// next entry
Ask: What value of Ki has been recorded for this entry: CCn1c(C(=O)O)c2c3ccc(Cl)c(c31)-c1c(C)c(C)nn1CCCc1cc(n(CCOC)n1)CCc1cc(c3ccc(F)cc3c1)OCCC2 (single isomer, unassigned) [Compound 9]
Result: 0.061
